- target.system: Human AhR (Homo sapiens)
- Sequence (P35869 11-848): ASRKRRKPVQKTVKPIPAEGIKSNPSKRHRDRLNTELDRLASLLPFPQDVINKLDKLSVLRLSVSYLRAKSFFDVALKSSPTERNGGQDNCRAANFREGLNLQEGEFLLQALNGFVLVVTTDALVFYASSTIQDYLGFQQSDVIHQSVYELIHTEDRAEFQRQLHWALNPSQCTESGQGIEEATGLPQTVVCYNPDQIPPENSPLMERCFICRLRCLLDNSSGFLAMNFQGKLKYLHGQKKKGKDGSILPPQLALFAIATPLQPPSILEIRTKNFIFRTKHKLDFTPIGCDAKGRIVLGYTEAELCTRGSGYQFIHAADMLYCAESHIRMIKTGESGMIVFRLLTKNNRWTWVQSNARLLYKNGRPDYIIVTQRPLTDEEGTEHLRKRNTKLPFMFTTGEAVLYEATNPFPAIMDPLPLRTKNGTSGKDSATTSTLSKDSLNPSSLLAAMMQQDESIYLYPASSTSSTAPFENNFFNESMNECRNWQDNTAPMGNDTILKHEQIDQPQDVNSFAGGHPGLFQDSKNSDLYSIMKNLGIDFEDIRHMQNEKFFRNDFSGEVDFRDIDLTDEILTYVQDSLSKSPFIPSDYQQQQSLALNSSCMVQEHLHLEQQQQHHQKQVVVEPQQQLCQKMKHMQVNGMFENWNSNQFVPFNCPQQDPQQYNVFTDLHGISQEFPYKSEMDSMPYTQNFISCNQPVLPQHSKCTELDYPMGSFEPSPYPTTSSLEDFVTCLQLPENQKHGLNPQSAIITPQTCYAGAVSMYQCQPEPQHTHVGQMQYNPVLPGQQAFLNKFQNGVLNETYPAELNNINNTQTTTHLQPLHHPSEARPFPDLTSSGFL
- protocol.notes: Transactivation assay in human cell line (in vitro assay 1: antagonism)
- condition.label: U87 glioblastoma cells, AHR inducible (DRE) firefly luciferase reporter, 150 μM kynurenic acid, 20 hours
For each record, check the reported IC50: if it is below 9 nM write Condition met, else write Condition not met.

molecule	category.label
C[C@@H](CO)NC(=O)c1cc(-c2ccc(Cl)cc2)nc(-c2cccs2)n1	Condition met
CC(NC(=O)c1cc(-c2ccc(OC(F)(F)F)cc2)nc(-c2cnn(C)c2)n1)C(O)CO (centres unmarked)	Condition not met
C[C@H](CO)NC(=O)c1cc(-c2ccc(Cl)cc2)nc(-c2cnn(C)c2)n1	Condition not met
Cc1ccc(-c2nc(C(=O)N[C@@H](C)CO)cc(-c3ccc(OC(F)(F)F)cc3)n2)cn1	Condition not met

Input line: Just wondering, is IC50 of CC(C)(O)CNC(=O)c1cc(-c2ccc(Cl)cc2)nc(-c2cccnc2)n1 below 9 nM?
Output line: Condition met

Input line: Just wondering, is IC50 of Cc1nn(C)cc1-c1nc(C(=O)N[C@@H](C)CO)cc(-c2ccc(OC(F)(F)F)cc2)n1 below 9 nM?
Output line: Condition not met

Input line: Just wondering, is IC50 of Cn1cc(-c2nc(C(=O)NCC(C)(C)O)cc(-c3ccc(OC(F)(F)F)cc3)n2)cn1 below 9 nM?
Output line: Condition met

* * *

Items are presented alongside their recorded IC50.
- target.system: Human AhR (Homo sapiens)
- Sequence (P35869 11-848): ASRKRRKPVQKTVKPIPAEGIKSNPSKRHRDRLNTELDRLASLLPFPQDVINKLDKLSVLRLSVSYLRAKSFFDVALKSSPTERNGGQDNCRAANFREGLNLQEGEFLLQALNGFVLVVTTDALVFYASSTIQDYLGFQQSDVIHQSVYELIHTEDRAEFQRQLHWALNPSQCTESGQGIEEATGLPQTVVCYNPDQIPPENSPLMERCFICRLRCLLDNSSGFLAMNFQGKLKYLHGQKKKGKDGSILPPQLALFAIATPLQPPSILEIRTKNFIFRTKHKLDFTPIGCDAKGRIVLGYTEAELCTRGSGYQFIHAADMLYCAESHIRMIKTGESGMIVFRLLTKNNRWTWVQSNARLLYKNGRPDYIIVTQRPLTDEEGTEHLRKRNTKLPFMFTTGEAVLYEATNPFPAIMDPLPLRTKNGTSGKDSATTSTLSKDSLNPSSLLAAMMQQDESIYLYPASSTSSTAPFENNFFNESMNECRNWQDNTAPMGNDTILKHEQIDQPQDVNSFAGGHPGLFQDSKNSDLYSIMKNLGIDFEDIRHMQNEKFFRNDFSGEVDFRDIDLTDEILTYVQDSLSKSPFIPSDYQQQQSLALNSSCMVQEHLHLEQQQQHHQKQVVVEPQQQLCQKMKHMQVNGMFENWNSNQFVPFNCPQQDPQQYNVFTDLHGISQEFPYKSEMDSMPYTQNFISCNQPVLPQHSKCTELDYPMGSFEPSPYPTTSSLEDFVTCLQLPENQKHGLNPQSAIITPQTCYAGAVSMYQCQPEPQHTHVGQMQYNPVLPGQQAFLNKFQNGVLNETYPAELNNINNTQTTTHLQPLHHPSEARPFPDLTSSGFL
- protocol.notes: Transactivation assay in human cell line (in vitro assay 1: antagonism)
- condition.label: U87 glioblastoma cells, AHR inducible (DRE) firefly luciferase reporter, 150 μM kynurenic acid, 20 hours
Respond with the bare value in nM.

Some compounds with known IC50 results, for comparison:
compound	IC50 (nM)
C[C@@H](CO)NC(=O)c1cc(-c2ccc(Cl)cc2)nc(-c2ccc(C#N)s2)n1 [Example 70]	94.2
Cc1ncc(-c2nc(C(=O)NCC(C)(C)O)cc(-c3ccc(OC(F)(F)F)cc3)n2)cn1 [Example 21]	379
Cc1ccsc1-c1nc(C(=O)N[C@@H](C)CO)cc(-c2ccc(Cl)cc2)n1 [Example 73]	16.3

Next compound, IC50 to be filled in.
Given item Cc1nn(C)cc1-c1nc(C(=O)NCC(C)(C)O)cc(-c2ccc(Cl)cc2)n1 [Example 66] , the value recorded as its IC50 is 50.1

* * *

- target.system: Human AhR (Homo sapiens, UniProt P35869)
- Sequence (P35869 11-848): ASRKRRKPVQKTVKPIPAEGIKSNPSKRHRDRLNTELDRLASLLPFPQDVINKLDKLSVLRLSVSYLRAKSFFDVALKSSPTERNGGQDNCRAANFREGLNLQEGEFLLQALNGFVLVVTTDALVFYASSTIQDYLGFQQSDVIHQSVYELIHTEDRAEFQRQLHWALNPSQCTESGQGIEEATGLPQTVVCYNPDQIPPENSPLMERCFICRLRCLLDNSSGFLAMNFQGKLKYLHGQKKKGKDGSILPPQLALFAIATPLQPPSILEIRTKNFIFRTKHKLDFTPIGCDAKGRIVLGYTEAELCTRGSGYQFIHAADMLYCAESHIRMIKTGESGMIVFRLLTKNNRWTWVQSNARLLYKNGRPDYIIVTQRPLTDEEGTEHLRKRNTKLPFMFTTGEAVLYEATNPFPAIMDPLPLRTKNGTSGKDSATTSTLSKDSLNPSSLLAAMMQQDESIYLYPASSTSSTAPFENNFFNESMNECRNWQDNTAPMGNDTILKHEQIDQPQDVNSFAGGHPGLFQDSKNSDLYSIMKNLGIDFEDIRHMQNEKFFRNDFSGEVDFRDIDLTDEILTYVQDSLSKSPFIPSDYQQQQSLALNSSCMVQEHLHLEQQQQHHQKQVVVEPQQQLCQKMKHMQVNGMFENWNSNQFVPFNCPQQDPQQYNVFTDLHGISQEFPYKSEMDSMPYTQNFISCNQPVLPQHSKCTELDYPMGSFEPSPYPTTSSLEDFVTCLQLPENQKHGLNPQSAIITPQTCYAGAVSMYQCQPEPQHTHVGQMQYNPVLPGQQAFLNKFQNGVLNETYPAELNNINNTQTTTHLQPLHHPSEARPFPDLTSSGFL
- protocol.notes: Transactivation assay in human cell line (in vitro assay 1: antagonism)
- condition.label: U87 glioblastoma cells, AHR inducible (DRE) firefly luciferase reporter, 150 μM kynurenic acid, 20 hours
- Experimental: Transactivation Assay in Human Cell Line (In Vitro Assay 1) Transactivation assay was carried out in U87 glioblastoma cells (ATCC) endogenously expressing AHR. […] Firefly luciferase and Renilla activity was determined by the DualGlo Luciferase Assay System (Promega, #2920). […]
Items are presented alongside their recorded pIC50.
A value of pIC50 is the negative decimal logarithm of a concentration given in moles per litre.

Some molecules with known pIC50 results, for comparison:
line.notation	pIC50
C[C@@H](CO)NC(=O)c1cc(-c2ccc(OC(F)(F)F)cc2)nc(-c2cn[nH]c2)n1	7.01
C[C@@H](CO)NC(=O)c1cc(-c2ccc(Cl)cc2)nc(-c2ccc(Cl)s2)n1	7.49
Cc1[nH]ncc1-c1nc(C(=O)NCC(C)(C)O)cc(-c2ccc(OC(F)(F)F)cc2)n1	6.68

Next molecule, pIC50 to be filled in.
Human AhR (Homo sapiens, UniProt P35869) data for Cn1cc(-c2nc(C(=O)N[C@@H](C#N)CO)cc(-c3ccc(OC(F)(F)F)cc3)n2)cn1 ; its pIC50: 7.65
